# system under test: 5-hydroxytryptamine receptor 1D (Homo sapiens, UniProt P28221)
# Sequence (P28221 whole entry): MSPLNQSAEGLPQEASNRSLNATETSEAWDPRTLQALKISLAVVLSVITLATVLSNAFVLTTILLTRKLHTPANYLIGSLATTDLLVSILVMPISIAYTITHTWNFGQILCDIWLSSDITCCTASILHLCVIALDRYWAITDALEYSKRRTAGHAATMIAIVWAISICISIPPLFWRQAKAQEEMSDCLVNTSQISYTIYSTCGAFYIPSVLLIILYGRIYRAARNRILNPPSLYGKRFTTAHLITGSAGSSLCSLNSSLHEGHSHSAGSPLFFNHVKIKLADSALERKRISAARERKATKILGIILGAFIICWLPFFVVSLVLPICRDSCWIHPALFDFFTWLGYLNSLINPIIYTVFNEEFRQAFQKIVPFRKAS
# assay details: Displacement of [3H]5-HT binding to cloned human 5-hydroxytryptamine 1D receptor stably expressed in CHO cells
# Type: cell-based
Provide the reported pIC50 of each item.
One number for each entry, as −log10 of the molar value.

For orientation, consider the following solved cases.
INSERT INTO assay_data (compound, quantitative_readout) VALUES
  ('OC[C@H](NC1CCN(CCCc2c[nH]c3ccc(-n4cncn4)cc23)CC1)c1ccccc1', 8.39),
  ('CC(=O)Nc1ccc(CCN(C)C2CCN(CCCc3c[nH]c4ccc(-n5cnnc5)cc34)CC2)cc1', 8.24),
  ('O=C(c1ccc(F)cc1)C1CCN(CCn2c(=O)[nH]c3ccccc3c2=O)CC1 [KETANSERIN]', 6.57);

// each compound listed below needs its pIC50
1. c1ccc(CNC2CCN(CCCc3c[nH]c4ccc(-n5cnnc5)cc34)CC2)cc1
2. c1cncc(CNC2CCN(CCCc3c[nH]c4ccc(-n5cnnc5)cc34)CC2)c1
3. C[C@@H](NC1CCN(CCCc2c[nH]c3ccc(-n4cncn4)cc23)CC1)c1ccccc1
4. C[C@H](O)[C@H](NC1CCN(CCCc2c[nH]c3ccc(-n4cnnc4)cc23)CC1)c1ccccc1
5. C=CCN(C)C1CCN(CCCc2c[nH]c3ccc(-n4cnnc4)cc23)CC1
6. C[C@@H](O)[C@H](NC1CCN(CCCc2c[nH]c3ccc(-n4cnnc4)cc23)CC1)c1ccccc1

8.34
7.46
7.74
8.12
7.70
9.05

Please state, for each entry, its recorded pIC50.
1. C[C@@H](NC1CCN(CCCc2c[nH]c3ccc(-n4ccnc4)cc23)CC1)c1ccccc1
2. c1ccc(CNC2CCN(CCCc3c[nH]c4ccc(-n5cnnc5)cc34)CC2)nc1
3. CN(C(=O)Nc1ccccc1)C1CCN(CCCc2c[nH]c3ccc(-n4cnnc4)cc23)CC1
4. CN(Cc1ccoc1)C1CCN(CCCc2c[nH]c3ccc(-n4cnnc4)cc23)CC1
5. c1ccc2c(c1)CCC2NCC1CCN(CCCc2c[nH]c3ccc(-n4cnnc4)cc23)CC1 (stereo not drawn)

1: 8.38; 2: 7.85; 3: 7.74; 4: 8.09; 5: 8.96

List reported pIC50 for each of these compounds:
1. OC[C@H](NCC1CCN(CCCc2c[nH]c3ccc(-n4cnnc4)cc23)CC1)c1ccccc1
2. CC(=O)Nc1ccc(CN(C)C2CCN(CCCc3c[nH]c4ccc(-n5cnnc5)cc34)CC2)cc1
3. CC(C)=CCCN(C)C1CCN(CCCc2c[nH]c3ccc(-n4cnnc4)cc23)CC1
4. CN(CC1CCN(CCCc2c[nH]c3ccc(-n4cnnc4)cc23)CC1)S(=O)(=O)c1ccccc1

8.23
7.72
8.59
8.80
